Each item that follows carries a reported viability, T/C.
- System: 843126-344-R-J1-PDC complex spheroid viability;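 further: spheroids exposed to drugs for seven days before readout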
- method: Anticancer human tumor 843126-344-R-J1-PDC patient-derived melanoma cell line growth inhibition [POLQ]
- measurement parameters: second compound 0.0316 µM; first compound 0.0316 µM; hits give low values
- Procedure: Multicellular complex tumor spheroid response to Polymerase (POL) inhibitors (novobiocin, ART-558, RP6685) in combination with a variety of drugs and investigational agents in selected tumor cell lines The POL inhibitors (novobiocin, ART-558, and RP6685) were evaluated both individually and in combination with standard of care and investigational anticancer small molecules within a complex spheroid model of solid tumors. . […]

| compound | value unit | viability, T/C |
| --- | --- | --- |
| CC(C)n1c(=O)n(C)c2cnc3cc(F)c(-c4ccc(OCCCN5CCCCC5)nc4)cc3c21 + Nc1ccc(C#CCN(C(=O)Cc2ncc(C(F)(F)F)cc2C(F)(F)F)c2ccc(F)cc2)nn1 | % | 91.9 |
| C#Cc1c(F)ccc2cc(O)cc(-c3ncc4c(N5CC6CCC(C5)N6)nc(OCC56CCCN5CC(F)C6)nc4c3F)c12 (stereo not given) + Cc1cccc(N(C)C(=O)C2C(O)CCN2c2nc(C)cc(C(F)(F)F)c2C#N)c1 | % | 88 |
| O=C(Nc1ccc(O)c(NS(=O)(=O)c2ccc(F)cc2)c1)c1ccc(-c2ccccc2)cc1 + Cc1cccc(N(C)C(=O)C2C(O)CCN2c2nc(C)cc(C(F)(F)F)c2C#N)c1 | % | 90 |
| CC1COCCN1c1cc(-c2ccnn2C)c2ccnc(-c3ccn[nH]3)c2n1 (stereo not given) + Nc1ccc(C#CCN(C(=O)Cc2ncc(C(F)(F)F)cc2C(F)(F)F)c2ccc(F)cc2)nn1 | % | 89.6 |
| Cn1ncnc1[C@H]1c2n[nH]c(=O)c3cc(F)cc(c23)N[C@@H]1c1ccc(F)cc1 + Cc1cccc(N(C)C(=O)C2C(O)CCN2c2nc(C)cc(C(F)(F)F)c2C#N)c1 | % | 91.9 |

These measurements were taken from PubChem BioAssay AID1963837.
